Would you mind telling me the reported Ki of each entry?
# TARGET OR TEST SYSTEM: UniProt:O00086
# Sequence (O00086 whole entry): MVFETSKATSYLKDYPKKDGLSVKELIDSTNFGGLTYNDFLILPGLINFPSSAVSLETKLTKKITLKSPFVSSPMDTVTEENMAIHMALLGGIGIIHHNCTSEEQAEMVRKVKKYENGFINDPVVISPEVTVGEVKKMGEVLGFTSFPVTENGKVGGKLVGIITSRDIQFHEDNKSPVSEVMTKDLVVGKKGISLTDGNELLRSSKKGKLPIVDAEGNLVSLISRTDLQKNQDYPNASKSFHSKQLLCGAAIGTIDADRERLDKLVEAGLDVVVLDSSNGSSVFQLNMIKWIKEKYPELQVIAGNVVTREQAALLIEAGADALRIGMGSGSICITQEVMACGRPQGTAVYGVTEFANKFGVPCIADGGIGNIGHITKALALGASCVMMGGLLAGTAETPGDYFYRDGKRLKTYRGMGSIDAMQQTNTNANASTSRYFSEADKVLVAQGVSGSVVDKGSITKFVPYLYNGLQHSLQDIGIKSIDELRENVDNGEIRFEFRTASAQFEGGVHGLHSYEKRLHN
# ASSAY PROTOCOL: Assay for inhibition of IMPDH activity (C. albicans)
# Assay type: biochemical
# CONDITIONS USED: C. albicans IMPDH; 50 uM IMP, 150 uM NAD, 25° C.
# Protocol: The assays employed to measure the inhibition of inosine monophosphate dehydrogenase (IMPDH) activity are described below. The effectiveness of the compounds of the present invention as inhibitors of IMPDH enzymes was determined in the following assays. […] This reaction is monitored at 340 nm using a UV/VIS spectrophotometer or at 474 nm using a fluorometer (excitation wavelength=344 nm). […] The percentage of inhibition was calculated according to the following equation: […]
Provide only the numeric value, understood in µM.

Documented Ki of NC(=O)c1ncn([C@@H]2O[C@H](COP(=O)(O)S)[C@H](O)C2O)n1 (stereo partly shown) : 1.34

The value of Ki measured for the compound "NC(=O)c1ncn([C@@H]2O[C@H](CP(=O)(O)O)[C@@H](O)[C@H]2O)n1" turned out to be 1.48

The reported value for NC(=O)c1ncn([C@@H]2O[C@H](CO[PH](O)=S)[C@H](O)C2O)n1 (stereo partly shown) in terms of Ki is 10.7

Record NC(=O)c1ncn([C@@H]2O[C@H](CC(F)(F)P(=O)(O)O)[C@H](O)C2O)n1 (stereo partly shown) . Reported Ki: 20.4
